Recorded Emax values for a group of compounds are listed next.
biological target: α1A-ARs (Homo sapiens); assay: Calcium flux assay (Calcium 6 dye) in cells expressing an α1-AR; type: cell-based; conditions: read-out: Average Emax (% epi)
Sequence (P35348 whole entry): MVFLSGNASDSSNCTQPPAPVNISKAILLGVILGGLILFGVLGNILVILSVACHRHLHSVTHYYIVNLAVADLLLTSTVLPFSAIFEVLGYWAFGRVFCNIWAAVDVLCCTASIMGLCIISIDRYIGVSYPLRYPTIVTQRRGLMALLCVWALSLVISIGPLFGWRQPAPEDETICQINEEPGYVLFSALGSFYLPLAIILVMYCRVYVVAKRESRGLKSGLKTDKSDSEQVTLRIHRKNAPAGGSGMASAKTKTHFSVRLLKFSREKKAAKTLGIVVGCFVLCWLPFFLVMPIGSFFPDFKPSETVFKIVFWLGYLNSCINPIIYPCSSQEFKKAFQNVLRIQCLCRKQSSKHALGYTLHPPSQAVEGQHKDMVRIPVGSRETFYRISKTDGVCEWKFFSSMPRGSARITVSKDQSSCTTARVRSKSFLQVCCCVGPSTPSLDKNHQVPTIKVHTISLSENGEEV

Solved entries:
Fc1cc(Cl)c2c(c1)c(C1CC1)cn2CC1=NCCN1: < 20%
Fc1ccc2c(C3CC3)cn(CC3=NCCN3)c2c1Cl: 21 to 60%
Clc1nn(CC2=NCCN2)c2c(Cl)cccc12: > 61%
Cc1cccc2c(C(F)(F)F)nn(CC3=NCCN3)c12: < 20%

Note: attention shifts to another entry.
In: So what does the record say about Emax for "Clc1cccc2cnn(CC3=NCCN3)c12" ?
Out: < 20%

// data source = patent US20250188060A1
